Assay: qHTS assay for cell viability of HEK293 cells (AID 743288); also: % is scaled to controls: 0 for no effect and ±100 for the full control effect; nearly all actives have a fitted effect of over 50% in size
Details: ATP luminescence (CellTiter-Glo), 18 h; hits give low values
Inconclusive results are not listed.
measureName: max response (%)

# smiles, measureName, assayResult
data = [
    ("CS(=O)(=O)c1ccc(C(=O)C2C(=O)CCCC2=O)c([N+](=O)[O-])c1", "max response", -4.44),
    ("Clc1cnc(Oc2ccc(Oc3ncc(Cl)cc3Cl)cc2)c(Cl)c1", "max response", -12.9),
    ("O=[N+]([O-])c1c2ccccc2cc2ccccc12", "max response", -0.948),
    ("CC(C)Oc1cccc(NC(=O)c2ccccc2C(F)(F)F)c1", "max response", -13.1),
    ("O=[N+]([O-])c1c(Cl)c(Cl)cc(Cl)c1Cl", "max response", -0.234),
    ("CO/C=C(/C(=O)OC)c1ccccc1Oc1cc(Oc2ccccc2C#N)ncn1", "max response", -25.4),
    ("O=[N+]([O-])c1cc([N+](=O)[O-])c2ccccc2c1", "max response", -3.94),
    ("CCCN(CCC)c1c([N+](=O)[O-])cc(S(N)(=O)=O)cc1[N+](=O)[O-]", "max response", -4.88),
    ("CCCCCCCCCCCCCCCC[N+](C)(C)C", "max response", -5.85),
    ("CCOCCOC(C)=O", "max response", -0.828),
    ("O=C(Nc1ccccc1-c1ccc(Cl)cc1)c1cccnc1Cl", "max response", -25.4),
    ("COc1nn(CSP(=S)(OC)OC)c(=O)s1", "max response", -26),
]

###

Assay: Quantitative High-Throughput drug screen in 47 multiple myeloma cell lines against the NCATS MIPE library collection: JIM3_ECACC cell viability assay (AID 1918963; also: nearly all actives have a fitted effect of over 35% in size; also: potency is read from the fitted curve at half-maximal effect)
Details: JIM3 myeloma viability, CellTiter-Glo ATP, 48 h; series mostly up to 45.8 µM
Records with an inconclusive call do not appear. Active and inactive are the calls of the source. Calls follow the shape of the dose curve; as a rule, active = well fitted cell-killing curve with a large enough effect; inconclusive = small, poorly fitted or top-dose-only effect; inactive = no such curve, though single readings can be large or run the other way.
measureName: Potency

# compound, assayResult
rows = [
    ("COc1cccc2c1[C@]13CCN(CC4CC4)[C@H](C2)[C@]1(OC)CCC(=O)C3", "inactive"),
    ("C[C@@]12OC(=O)[C@]1([C@@H](O)[C@@H]1C=CCCC1)NC(=O)[C@H]2CCCl", "0.0235 µM (active)"),
    ("O=C(N[C@H]1CN2CCC1CC2)c1ccc(Cl)cc1", "inactive"),
    ("CCOC(=O)c1c(C(C#N)=CN)c2ccc(Cl)c(Cl)c2n1C", "inactive"),
    ("CCN(CC)C(=O)c1ccc(C2=CC3(CCNCC3)Oc3cccc(O)c32)cc1", "inactive"),
    ("O=C1C=CC[C@@H]2[C@H]3CCCN4CCC[C@@H](CN12)[C@@H]34", "inactive"),
    ("NC1CC1c1ccccc1 (stereo unspecified)", "inactive"),
    ("CCOP(=O)(OCC)C(C)NC(=O)N(CCCl)N=O (stereo unspecified)", "inactive"),
    ("CCNC(=O)C[C@@H]1N=C(c2ccc(Cl)cc2)c2cc(OC)ccc2-n2c(C)nnc21", "6.62 µM (active)"),
    ("COC1=C[C@@H]2[C@@H]3Cc4ccc(OC)c(O)c4[C@]2(CCN3C)CC1=O", "9.35 µM (active)"),
    ("O=C(Nc1ccncc1)C(=O)c1cn(Cc2ccc(Cl)cc2)c2ccccc12", "0.0148 µM (active)"),
]

###

System: CRL-7250
Experiment: Cytotoxic Profiling of Annotated Libraries Using Quantitative High-Throughput Screening (AID 1296008); also: nearly all actives have a fitted effect of over 60% in size; as to max response: % is scaled to controls: 0 for no effect and ±100 for the full control effect
Settings: Five cell lines viability, CellTiter-Glo ATP luminescence, 48-72 h; hits give low values
Inconclusive results are not listed.

# compound, unitOfMeasurement, max response
measured = [
    ("CCOC(=O)c1c(C(C#N)=CN)c2ccc(Cl)c(Cl)c2n1C", "%", 3.66),
    ("C#CC1(O)CCC2C3CCC4=CC(=O)CCC4(C)C3CCC21C (stereo not given)", "%", -20.8),
    ("O=S(=O)(O)C(F)(F)C(F)(F)C(F)(F)C(F)(F)F", "%", -7.36),
    ("COc1ccc(CC2NCCc3cc(OC)c(OC)cc32)cc1OC (stereo not given)", "%", -3.56),
    ("CN(C)[C@@H]1C(=O)C(C(N)=O)=C(O)[C@@]2(O)C(=O)C3=C(O)c4c(O)cccc4[C@@](C)(O)[C@H]3[C@H](O)[C@@H]12", "%", -1.31),
    ("C[C@]12Cc3cn[nH]c3C[C@@H]1CC[C@@H]1[C@H]2CC[C@@]2(C)[C@H]1CC[C@]2(C)O", "%", 3.97),
    ("O=S(=O)(O)C(F)(F)C(F)(F)C(F)(F)C(F)(F)C(F)(F)C(F)(F)C(F)(F)C(F)(F)F", "%", -8.73),
    ("CC(C)(C)[C@]1(O)C[C@@H]2OC(=O)C[C@@]23C(=O)O[C@@H]2OC(=O)[C@H](O)C213 (stereo not given in full)", "%", 2.16),
    ("NC1CC1c1ccccc1 (stereo not given)", "%", -3.17),
    ("CS(=O)(=O)c1ccc(C(=O)C2C(=O)CCCC2=O)c([N+](=O)[O-])c1", "%", -5.31),
]

###

Tested on: HaCat
Experiment: Cytotoxic Profiling of Annotated Libraries Using Quantitative High-Throughput Screening (AID 1296008); also: nearly all actives have a fitted effect of over 60% in size
Settings: Five cell lines viability, CellTiter-Glo ATP luminescence, 48-72 h
Results filed as inconclusive are left out. Active and inactive are the calls of the source. Calls follow the shape of the dose curve; as a rule, active = well fitted inhibition curve with a large enough effect; inconclusive = small, poorly fitted or top-dose-only effect; inactive = flat fitted curve, though single readings scatter.
Possible outcomes: active, inactive

# smiles, assignedClass
records = [
    ("CC[C@@H]1[C@@H](C)O[C@@](O)([C@@H](C)[C@H](O)[C@H](C)[C@H]2OC(=O)C=CC=C[C@@H](C)[C@@H]([C@@H](C)[C@@H](O)[C@H](C)[C@@]3(O)C[C@H](O[C@H]4C[C@H](O)[C@H](O)[C@H](C)O4)[C@H](CC)[C@@H](C)O3)OC(=O)C=CC=C[C@@H]2C)C[C@H]1O[C@H]1C[C@H](O)[C@H](O)[C@H](C)O1", "active"),
    ("O=[N+]([O-])c1ccc([As](=O)(O)O)cc1", "inactive"),
    ("COc1cccc2c1[C@]13CCN(CC4CC4)[C@H](C2)[C@]1(OC)CCC(=O)C3", "inactive"),
    ("CCCCCCCCc1ccc(O)cc1", "active"),
    ("CC(=O)N(C)c1cccc(-c2ccnc3c(C(=O)c4cccs4)cnn23)c1", "inactive"),
    ("CCCCCCCCCCCCCCCC[N+](C)(C)C", "active"),
    ("O=C(N[C@H]1CN2CCC1CC2)c1ccc(Cl)cc1", "inactive"),
    ("COc1nn(CSP(=S)(OC)OC)c(=O)s1", "inactive"),
    ("O=[N+]([O-])c1c(Cl)c(Cl)cc(Cl)c1Cl", "inactive"),
]

###

Assay: qHTS of pediatric cancer cell lines to identify multiple opportunities for drug repurposing: Primary screen for LAN-5 cells (AID 1347100); also: potency is read from the fitted curve at half-maximal effect
Settings: LAN-5 neuroblastoma viability, CellTiter-Glo luminescence, 48 h; series mostly up to 46 µM
Inconclusive results are not listed. The source made the active and inactive calls. Calls follow the shape of the dose curve; as a rule, active = well fitted cell-killing curve with a large enough effect; inconclusive = small, poorly fitted or top-dose-only effect; inactive = no such curve, though single readings can be large or run the other way.

# molecule, Potency
records = [
    ("O=S(=O)(O)C(F)(F)C(F)(F)C(F)(F)C(F)(F)F", "inactive"),
    ("Nc1c(Cl)c(Cl)c(Cl)c(Cl)c1Cl", "inactive"),
    ("CCCCCCCCCCCCCCCC[N+](C)(C)C", "23.7 µM (active)"),
    ("O=[N+]([O-])c1ccc([As](=O)(O)O)cc1", "inactive"),
    ("C[C@]12CC[C@H]3[C@@H](CCC4=CC(=O)CC[C@@]43C)[C@H]1CC[C@H]2O", "inactive"),
    ("COC(=O)[C@@H](N)CCCN=C(N)N[N+](=O)[O-]", "inactive"),
    ("CC[C@@]1(O)C(=O)OCc2c1cc1n(c2=O)Cc2cc3ccccc3nc2-1", "0.0093 µM (active)"),
    ("COc1ccc2c(c1)[C@]13CCCCC1C(C2)N(C)CC3 (stereo partly specified)", "inactive"),
    ("C[C@H]([C@H](O)CCC(C)(C)O)[C@H]1CC[C@@]2(O)C3=CC(=O)[C@@H]4C[C@@H](O)[C@@H](O)C[C@]4(C)[C@@H]3CC[C@]12C", "inactive"),
    ("CC(C)[C@]12O[C@@H]1[C@@H]1O[C@]13[C@]1(O[C@H]1C[C@@H]1C4=C(CC[C@@]13C)C(=O)OC4)[C@H]2O", "inactive"),
    ("C#C[C@]1(O)C=C[C@@H]2[C@@H]3CCC4=CC(=O)CC[C@@H]4[C@H]3CC[C@@]21CC", "inactive"),
    ("CCCCOC(=O)c1ccccc1C(=O)OCc1ccccc1", "inactive"),
    ("O=C(O)C(Cl)Cl", "inactive"),
    ("CCCC[N+]1(C)[C@H]2CC(OC(=O)[C@H](CO)c3ccccc3)C[C@H]1[C@H]1O[C@H]12 (stereo partly specified)", "inactive"),
    ("CCNC(=O)CC1N=C(c2ccc(Cl)cc2)c2cc(OC)ccc2-n2c(C)nnc21 (stereo unspecified)", "10.5 µM (active)"),
    ("Nc1ccc(Cl)cc1N", "24.3 µM (active)"),
    ("CN(C)[C@@H]1C(=O)C(C(N)=O)=C(O)[C@@]2(O)C(=O)C3=C(O)c4c(O)cccc4[C@@](C)(O)[C@H]3[C@H](O)[C@@H]12", "inactive"),
    ("CCC(=O)OC1CCC2C3CCC4=CC(=O)CC[C@@]4(C)C3CC[C@]12C (stereo partly specified)", "inactive"),
    ("CC(=Cc1csc(C)n1)[C@@H]1C[C@H]2O[C@@H]2CCC[C@H](C)[C@@H](O)[C@@H](C)C(=O)C(C)(C)[C@@H](O)CC(=O)O1", "0.001 µM (active)"),
    ("CO[C@H]1CCC(O[C@H]2C[C@H]([C@]3(C)CC[C@]4(C[C@H](O)[C@@H](C)[C@@H]([C@@H](C)C=C(C)C(=O)[C@H](C)C[C@H](C)C(=O)O)O4)O3)O[C@]3(O[C@@H]([C@H]4O[C@@](O)(CO)[C@H](C)C[C@H]4C)C[C@H]3C)[C@H]2C)O[C@H]1C (stereo partly specified)", "0.372 µM (active)"),
    ("CC[N+]1(CCOC(=O)C(O)(c2ccccc2)c2ccccc2)CCCCC1", "inactive"),
    ("CCC1(CCC(C)C)C(=O)NC(=O)NC1=O", "inactive"),
    ("C=C1C[C@H]2[C@H]3CCC(=O)[C@@]3(C)CC[C@@H]2[C@@]2(C)C=CC(=O)C=C12", "inactive"),
    ("O=C1CCC[C@@H]2[C@H]3CCCN4CCC[C@@H](CN12)[C@@H]34", "inactive"),
    ("CCOCCOC(C)=O", "inactive"),
    ("O=C(O)COc1nc(Cl)c(Cl)cc1Cl", "inactive"),
]
